Source of measurements: the supplement of paper PMC6331611

# Test system: Salmonella enterica serovar Typhimurium SL1344
# ASSAY NAME: intracellular MIC (10-fold luminescence reduction); higher = less potent
# EXPERIMENTAL SETUP: RAW264.7 macrophages
Counter-ions that a name gives are not always drawn.
Item-by-item account of intracellular MIC

>>> test_result("CCCCc1nc(Cl)c(CO)n1Cc1ccc(-c2ccccc2-c2nnn[nH]2)cc1")
"> 50 µM"

--- query ---
Form field: intracellular MIC recorded for CN(C)[C@@H]1C(O)=C(C(N)=O)C(=O)[C@@]2(O)C(O)=C3C(=O)c4c(O)ccc(Cl)c4[C@@H](O)[C@H]3C[C@@H]12 [DEMECLOCYCLINE HYDROCHLORIDE] with Salmonella enterica serovar Typhimurium SL1344 (enter value) ≤ 0.78 µM
